- Tested on: EL4
- experiment_summary: In vitro cytotoxicity of compound against EL4, mouse thymoma was defined by microculture tetrazolium assay
- Assay type: functional, cell-based
reported_metric: IC50 (µg/mL)
Give the value, in units of µg/mL, as a plain number.

Given C[C@H]1[C@@H](CCNC(=O)CC[C@H](NC(=O)CC[C@H]2O[C@@H]3O[C@]4(C)CC[C@H]5[C@H](C)CC[C@@H]([C@H]2C)[C@]35OO4)C(=O)NCC[C@H]2O[C@@H]3O[C@]4(C)CC[C@H]5[C@H](C)CC[C@@H]([C@H]2C)[C@]35OO4)O[C@@H]2O[C@]3(C)CC[C@H]4[C@H](C)CC[C@@H]1[C@]24OO3 , state its recorded IC50.
1.07
